Assay: NCI Yeast Anticancer Drug Screen. Data for the cln2 rad14 strain (AID 165);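 further: 0% = growth equal to vehicle treated cultures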
Conditions: S. cerevisiae cln2 rad14 strain, at 5.0 µM (retest, dose inferred, filed as 0.5), active compounds read high
About 79,000 compounds went through this panel and 15% of them were active in at least one assay; those are over-represented in the sample as a whole.
Each record here notes measured growth inhibition.
All answers are understood in %, so give the number only.

Consider the reported growth inhibition for these compounds:
# compound, readout_unit, growth inhibition
rows = [
    ("COC(=O)c1cccc2cccc(C(=O)Nc3ccc(Cl)cc3)c12", "%", 42),
    ("CCOCCC(=O)NNc1ccccc1", "%", 5),
    ("CN(C)c1ccc(/C=N/N=C(\\C#N)[S][Sn]([Cl])([c]2ccccc2)[c]2ccccc2)cc1", "%", 98),
    ("Cc1ccc(NS(=O)(=O)c2ccc(C)cc2)cc1", "%", -6),
    ("O[C@H]1[C@H]2c3cc4c(cc3CN3CCC(=C[C@@H]1O)[C@H]23)OCO4", "%", 77),
]

Complete the entry with growth inhibition for CC1=CC2C(O)(CC(CO)=CC3C4C(C)(C)C4(OC(=O)c4ccccc4)C(OC(=O)c4ccccc4)C(C)C32O)C1=O (configuration not stated)
73

Give reported growth inhibition value for O=C(Nc1cccc(Br)c1)Oc1cccc2cccnc12
76

Supply measured growth inhibition of O/N=C/c1cc(Cl)cc(Cl)c1O in your reply.
80
